- target_system: T1, Peptide G (rat PAR-2), N-terminal biotinylated (Rat (Rattus norvegicus), N-terminal biotin via G4S linker)
- T1 construct: also called Peptide G N-Term
- T1 peptide: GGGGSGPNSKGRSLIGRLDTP
- assay_protocol: SPR, peptide immobilized
attribute_measured: T1/2 (min)
Please reply with the bare figure in min and do not write the unit itself.

Some entries whose results are on file:
>>> observed_value("H4H581P (antibody, human IgG4, V domains shown, also called mAb H4H581P; H1H581P variable regions) VH: QVQLVESGGGVVQPGRSLRLSCVASGFTFSRYGIHWVRQAPGKGLEWVIVISYDGINKYYADSVKGRFTISRDNSKNTVYLQMNSLRAEDTAVYYCAKGDFWSGYFDYWGQGTLVTVSS VL: DIVMTQTPLSSPVTLGQPASISCRSSQSLVHSDGNTYLSWLHQRPGQPPRLLIYKISNRFSGVPDRFSGSGAGTDFTLQISRVEAEDVGIYYCMQATQFPTFGGGTKVEIK")
62
>>> observed_value("H4H579P (antibody, human IgG4, V domains shown, also called H1H579P variable regions) VH: QVQLVESGGGVVQPGRSLRLSCVASGFTFSRYGMHWVRQAPGKGLEWLIVISYDGINKYYADSVKGRFTISRDNSKNTVYLQMNSLRAEDTGVYYCAKGDFWSGYFDYWGQGTLVTVSS VL: DIVMTQTPLSSPVTLGQPASISCRSSQSLVHSDGNTYLSWLHQRPGQPPRLLIYKISNRFSGVPDRFSGSGAGTDFTLQISRVEAEDVGIYYCMQGTQFPTFGGGTKVEIK")
38

What measured T1/2 goes with H4H585P (antibody, human IgG4, V domains shown, also called H1H585P variable regions) VH: QVQLVESGGGVVQPGRSLRLSCVASGFTFSRYGMHWVRQAPGKGLEWLIVISYDGINKYYADSVKGRFTISRDNSKNTVYLQMNSLRAEDTAVYYCAKGDFWSGYFDYWGQGTLVTVSS VL: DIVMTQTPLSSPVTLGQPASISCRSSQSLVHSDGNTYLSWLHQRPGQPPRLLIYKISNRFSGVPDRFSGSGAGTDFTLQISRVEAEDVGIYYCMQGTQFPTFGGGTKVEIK ?
35

The origin of these recorded values is patent US20110059095A1.
